# target.or.test.system: NaV 1.8 channel (Homo sapiens)
# test.details: Activity against NaV 1.8 channel (optical membrane potential assay)
pIC50: −log10 of the molar value.
readout.label: pIC50

{"compound": "Cc1ccc2c(N3CCC(NC(=O)OCc4cccnc4)CC3)nc(-c3ccccc3O)nc2c1 [Example 227]", "target.or.test.system": "NaV 1.8 channel (Homo sapiens)", "endpoint.result": "< 5.00"}
{"compound": "Cc1ccc2c(N3CCC(NC(=O)[C@H](O)CC(C)(C)C)CC3)nc(-c3c(O)cccc3F)nc2c1 [Example 249]", "target.or.test.system": "NaV 1.8 channel (Homo sapiens)", "endpoint.result": "5.00 to 5.70"}
{"compound": "Cc1ccc2c(N3CC(CNC(=O)C4CCCO4)C3)nc(-c3ccccc3O)nc2c1 (stereo not shown) [Example 417]", "target.or.test.system": "NaV 1.8 channel (Homo sapiens)", "endpoint.result": "< 5.00"}
{"compound": "CC[C@@H](O)C(=O)N1CCN(c2nc(-c3ccccc3O)nc3ccccc23)CC1 [Example 118]", "target.or.test.system": "NaV 1.8 channel (Homo sapiens)", "endpoint.result": "5.00 to 5.70"}

* * *

# pIC50 annotations
# target.or.test.system: NaV 1.8 channel (Homo sapiens)
# test.details: Activity against NaV 1.8 channel (optical membrane potential assay)
pIC50: −log10 of the molar value.

{"molecule": "Cc1ccc2c(N3CCC(CNC(=O)C(O)C(C)C)CC3)nc(-c3ccccc3O)nc2c1 (stereo not shown)", "pIC50": "5.00 to 5.70"}
{"molecule": "Cc1ccc2c(N3CC[C@@H](NC(=O)OCc4ccncc4)C3)nc(-c3ccccc3O)nc2c1", "pIC50": "5.00 to 5.70"}
{"molecule": "Cc1ccc2c(N3CCN(C(=O)CCc4ccccn4)CC3)nc(-c3ccccc3O)nc2c1", "pIC50": "5.00 to 5.70"}
{"molecule": "O=C(N[C@@H]1CCN(c2nc(-c3ccccc3O)nc3ccc(F)cc23)C1)c1ccccn1", "pIC50": "< 5.00"}
{"molecule": "CC(C)(C)C[C@@H](O)C(=O)N1CCN(c2nc(-c3ccccc3O)nc3ccccc23)CC1", "pIC50": "> 5.70"}
{"molecule": "Cc1ccc2c(N3CCN(C(=O)OCc4ccncc4)CC3)nc(-c3ccccc3O)nc2c1", "pIC50": "< 5.00"}
{"molecule": "Cc1ccc2c(N3CCC[C@@H](NC(=O)O[C@H]4CCOC4)C3)nc(-c3ccccc3O)nc2c1", "pIC50": "> 5.70"}
{"molecule": "Cc1ccc2c(N3CCN(C(=O)[C@H](O)CC(C)(C)F)CC3)nc(-c3ccccc3O)nc2c1", "pIC50": "< 5.00"}
{"molecule": "Cc1ccc2c(N3CC[C@H](CNC(=O)O[C@@H]4CCOC4)C3)nc(-c3ccccc3O)nc2c1", "pIC50": "< 5.00"}
{"molecule": "COCCOC(=O)NC[C@@H]1CCCN(c2nc(-c3ccccc3O)nc3cc(C)ccc23)C1", "pIC50": "5.00 to 5.70"}
{"molecule": "Cc1ccc2c(N3CCN(C(=O)OCc4ccncc4)CC3)nc(-c3c(O)cccc3F)nc2c1", "pIC50": "5.00 to 5.70"}
{"molecule": "Cc1ccc2c(N3CC[C@@H](NC(=O)CCC4CCCC4)C3)nc(-c3ccccc3O)nc2c1", "pIC50": "< 5.00"}
{"molecule": "CCCC(O)C(=O)NC1CCN(c2nc(-c3ccccc3O)nc3cc(C)ccc23)CC1 (stereo not shown)", "pIC50": "< 5.00"}
{"molecule": "Cc1ccc2c(N3CCN(C(=O)[C@H](O)CC(=O)O)CC3)nc(-c3ccccc3O)nc2c1", "pIC50": "< 5.00"}
{"molecule": "Cc1ccc2c(N3CCC(NC(=O)CC4CCOCC4)CC3)nc(-c3ccccc3O)nc2c1", "pIC50": "< 5.00"}
{"molecule": "Cc1ccc2c(N3CCC(NC(=O)CCc4ccccn4)CC3)nc(-c3ccccc3O)nc2c1", "pIC50": "< 5.00"}

* * *

# target.or.test.system: NaV 1.8 channel (Homo sapiens, UniProt Q9Y5Y9)
# Sequence (Q9Y5Y9 whole entry): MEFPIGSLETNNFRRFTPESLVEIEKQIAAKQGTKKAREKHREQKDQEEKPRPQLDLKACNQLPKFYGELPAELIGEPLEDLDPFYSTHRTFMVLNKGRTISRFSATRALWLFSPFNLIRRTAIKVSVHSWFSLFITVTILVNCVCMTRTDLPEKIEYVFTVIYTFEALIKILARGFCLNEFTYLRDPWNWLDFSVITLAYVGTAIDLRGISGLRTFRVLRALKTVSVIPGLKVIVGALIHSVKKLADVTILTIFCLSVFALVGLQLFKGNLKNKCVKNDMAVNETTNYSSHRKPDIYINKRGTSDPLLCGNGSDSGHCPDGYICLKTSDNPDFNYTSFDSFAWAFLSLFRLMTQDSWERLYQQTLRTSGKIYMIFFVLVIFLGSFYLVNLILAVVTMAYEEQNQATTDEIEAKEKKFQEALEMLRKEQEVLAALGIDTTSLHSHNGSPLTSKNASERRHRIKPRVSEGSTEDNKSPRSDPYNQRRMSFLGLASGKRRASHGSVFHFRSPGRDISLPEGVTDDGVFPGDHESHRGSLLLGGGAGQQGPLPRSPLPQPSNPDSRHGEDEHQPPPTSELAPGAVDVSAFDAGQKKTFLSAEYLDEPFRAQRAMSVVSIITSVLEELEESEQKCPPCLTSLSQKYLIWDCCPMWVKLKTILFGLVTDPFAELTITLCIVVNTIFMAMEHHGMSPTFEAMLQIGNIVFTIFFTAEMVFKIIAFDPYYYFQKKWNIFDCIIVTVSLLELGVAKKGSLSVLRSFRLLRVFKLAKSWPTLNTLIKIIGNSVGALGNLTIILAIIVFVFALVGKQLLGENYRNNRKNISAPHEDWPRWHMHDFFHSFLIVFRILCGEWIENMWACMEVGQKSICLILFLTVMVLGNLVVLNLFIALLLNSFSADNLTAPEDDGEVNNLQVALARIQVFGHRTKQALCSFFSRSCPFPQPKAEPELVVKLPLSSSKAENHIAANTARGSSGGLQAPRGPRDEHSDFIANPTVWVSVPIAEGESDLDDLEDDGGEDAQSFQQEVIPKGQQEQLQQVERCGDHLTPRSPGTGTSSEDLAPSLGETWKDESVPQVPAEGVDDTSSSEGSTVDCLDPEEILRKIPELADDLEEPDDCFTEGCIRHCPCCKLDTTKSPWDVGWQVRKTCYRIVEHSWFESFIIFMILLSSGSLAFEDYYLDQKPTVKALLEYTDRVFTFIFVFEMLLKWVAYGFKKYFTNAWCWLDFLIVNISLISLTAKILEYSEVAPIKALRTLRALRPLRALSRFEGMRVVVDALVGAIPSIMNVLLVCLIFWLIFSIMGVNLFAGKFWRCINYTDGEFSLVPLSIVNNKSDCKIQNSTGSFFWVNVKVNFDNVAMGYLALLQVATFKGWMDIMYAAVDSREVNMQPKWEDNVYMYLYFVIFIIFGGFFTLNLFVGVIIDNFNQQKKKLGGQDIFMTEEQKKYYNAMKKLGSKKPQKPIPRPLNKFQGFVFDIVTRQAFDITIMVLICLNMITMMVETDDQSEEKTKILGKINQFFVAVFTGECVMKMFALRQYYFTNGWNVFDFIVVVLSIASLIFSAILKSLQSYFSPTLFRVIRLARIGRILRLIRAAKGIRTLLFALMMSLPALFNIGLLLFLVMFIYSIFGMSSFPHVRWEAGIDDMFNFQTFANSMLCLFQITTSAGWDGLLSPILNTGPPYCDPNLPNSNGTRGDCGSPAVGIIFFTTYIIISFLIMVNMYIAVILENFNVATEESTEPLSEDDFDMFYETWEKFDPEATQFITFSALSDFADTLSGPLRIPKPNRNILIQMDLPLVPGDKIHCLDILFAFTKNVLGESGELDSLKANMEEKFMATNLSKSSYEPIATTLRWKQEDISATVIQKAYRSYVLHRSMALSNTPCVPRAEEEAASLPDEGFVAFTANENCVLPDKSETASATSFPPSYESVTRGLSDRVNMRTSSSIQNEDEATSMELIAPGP
# test.details: Activity against NaV 1.8 channel (optical membrane potential assay)
pIC50: −log10 of the molar value.
readout.label: pIC50

{"compound": "Cc1ccc2c(N3CCC(NC(=O)OCC4CCCCO4)CC3)nc(-c3ccccc3O)nc2c1 (stereo not shown) [Example 219]", "readout.label": "pIC50", "endpoint.result": "> 5.70"}
{"compound": "Cc1ccc2c(N3CCN(C(=O)[C@H](O)CC(C)(C)C)CC3)nc(-c3ccccc3O)nc2c1 [Example 101]", "readout.label": "pIC50", "endpoint.result": "> 5.70"}
{"compound": "CC(C)C[C@@H](O)C(=O)N1CCN(c2nc(-c3c(O)cccc3Cl)nc3ccccc23)CC1 [Example 146]", "readout.label": "pIC50", "endpoint.result": "< 5.00"}
{"compound": "Cc1ccc2c(N3CC(CNC(=O)OCC4CCCO4)C3)nc(-c3ccccc3O)nc2c1 (stereo not shown) [Example 415]", "readout.label": "pIC50", "endpoint.result": "5.00 to 5.70"}
{"compound": "CC[C@H](O)C(=O)N1CCN(c2nc(-c3ccccc3O)nc3cc(C)ccc23)CC1 [Example 124]", "readout.label": "pIC50", "endpoint.result": "< 5.00"}
{"compound": "Cc1ccc2c(N3CCC[C@H](NC(=O)O[C@H]4CCOC4)C3)nc(-c3ccccc3O)nc2c1 [Example 204]", "readout.label": "pIC50", "endpoint.result": "< 5.00"}
{"compound": "Cc1ccc2c(N3CCN(C(=O)C(O)CC(F)(F)F)CC3)nc(-c3ccccc3O)nc2c1 (stereo not shown) [Example 112]", "readout.label": "pIC50", "endpoint.result": "< 5.00"}
{"compound": "Cc1ccc2c(N3CC[C@@H](NC(=O)c4cccc(N(C)C)c4)C3)nc(-c3ccccc3O)nc2c1 [Example 342]", "readout.label": "pIC50", "endpoint.result": "< 5.00"}
{"compound": "CCOC(=O)NC[C@@H]1CCCN(c2nc(-c3c(O)cccc3F)nc3cc(C)ccc23)C1 [Example 262]", "readout.label": "pIC50", "endpoint.result": "5.00 to 5.70"}
{"compound": "Cc1ccc2c(N3CCN(C(=O)OCC(C)(C)C)CC3)nc(-c3ccccc3O)nc2c1 [Example 197]", "readout.label": "pIC50", "endpoint.result": "> 5.70"}
{"compound": "CCCOC(=O)NC[C@@H]1CCCN(c2nc(-c3ccccc3O)nc3cc(C)ccc23)C1 [Example 256]", "readout.label": "pIC50", "endpoint.result": "5.00 to 5.70"}
{"compound": "Cc1ccc2c(N3CCC[C@@H](CNC(=O)O[C@H]4CCOC4)C3)nc(-c3ccccc3O)nc2c1 [Example 215]", "readout.label": "pIC50", "endpoint.result": "< 5.00"}
{"compound": "Cc1ccc2c(N3CCC[C@H](NC(=O)[C@H]4CCCO4)C3)nc(-c3ccccc3O)nc2c1 [Example 205]", "readout.label": "pIC50", "endpoint.result": "< 5.00"}
{"compound": "Cc1ccc2c(N3CC[C@@H](NC(=O)O[C@H]4CCOC4)C3)nc(-c3c(O)cccc3F)nc2c1 [Example 345]", "readout.label": "pIC50", "endpoint.result": "5.00 to 5.70"}
{"compound": "CCCCC(O)C(=O)N1CCN(c2nc(-c3ccccc3O)nc3cc(C)ccc23)CC1 (stereo not shown) [Example 120]", "readout.label": "pIC50", "endpoint.result": "5.00 to 5.70"}
{"compound": "CC(C)(C)[C@H](O)C(=O)N1CCN(c2nc(-c3ccccc3O)nc3ccc(F)cc23)CC1 [Example 139]", "readout.label": "pIC50", "endpoint.result": "5.00 to 5.70"}

* * *

# target.or.test.system: NaV 1.8 channel (Homo sapiens, UniProt Q9Y5Y9)
# test.details: Activity against NaV 1.8 channel (optical membrane potential assay)
// reported IC50 per item

{"compound": "CCCOC(=O)NC[C@@H]1CCN(c2nc(-c3ccccc3O)nc3cc(C)ccc23)C1", "IC50": "< 2 µM"}
{"compound": "CC[C@@H](O)C(=O)NC1CCN(c2nc(-c3ccccc3O)nc3ccccc23)CC1", "IC50": "> 10 µM"}
{"compound": "Cc1ccc2c(N3CC[C@@H](CNC(=O)O[C@H]4CCOC4)C3)nc(-c3ccccc3O)nc2c1", "IC50": "2 to 10 µM"}
{"compound": "Cc1ccc2c(N3CCN(C(=O)[C@H](O)CC(C)C)CC3)nc(-c3c(C)cccc3O)nc2c1", "IC50": "> 10 µM"}
{"compound": "Cc1ccc2c(N3CC[C@@H](NC(=O)OCc4cccc5c4OCO5)C3)nc(-c3ccccc3O)nc2c1", "IC50": "> 10 µM"}
{"compound": "Cc1ccc2c(N3CCN(C(=O)[C@H](O)CC(C)(C)C)CC3)nc(-c3c(O)cccc3F)nc2c1", "IC50": "< 2 µM"}
{"compound": "Cc1ccc2c(N3CCC(NC(=O)C(C)(O)C(F)(F)F)CC3)nc(-c3ccccc3O)nc2c1 (stereo not shown)", "IC50": "> 10 µM"}
